- Experiment notes: Initial plasma concentration in BALB/c mouse at 10 mg/kg, iv measured for 24 hrs post dose by LC-MS/MS analysis
- Format: ADME, organism-based
Parameter measured: C0 at 24 h

input: Respond only with C0 at 24 h recorded for "C=CCn1cc(-c2nc3ccccc3nc2Cl)c2cc(OC)ccc21"
output: 5060 ng/mL

---

- Experiment notes: Cmax in BALB/c mouse at 10 mg/kg, iv measured for 24 hrs post dose by LC-MS/MS analysis
- Type: ADME, organism-based
- Design: dose 10 mg/kg, route intravenous
- Condition: in vivo
Parameter measured: Cmax (ng/mL)
// return numeric value only (unit: ng/mL, not printed)

input: Please look at this molecule and report its Cmax: "C=CCn1cc(-c2nc3ccccc3nc2Cl)c2cc(OC)ccc21"
output: 2850

---

- Measured target: 3',5'-cyclic-AMP phosphodiesterase 4B (Homo sapiens)
- Sequence (Q07343 whole entry): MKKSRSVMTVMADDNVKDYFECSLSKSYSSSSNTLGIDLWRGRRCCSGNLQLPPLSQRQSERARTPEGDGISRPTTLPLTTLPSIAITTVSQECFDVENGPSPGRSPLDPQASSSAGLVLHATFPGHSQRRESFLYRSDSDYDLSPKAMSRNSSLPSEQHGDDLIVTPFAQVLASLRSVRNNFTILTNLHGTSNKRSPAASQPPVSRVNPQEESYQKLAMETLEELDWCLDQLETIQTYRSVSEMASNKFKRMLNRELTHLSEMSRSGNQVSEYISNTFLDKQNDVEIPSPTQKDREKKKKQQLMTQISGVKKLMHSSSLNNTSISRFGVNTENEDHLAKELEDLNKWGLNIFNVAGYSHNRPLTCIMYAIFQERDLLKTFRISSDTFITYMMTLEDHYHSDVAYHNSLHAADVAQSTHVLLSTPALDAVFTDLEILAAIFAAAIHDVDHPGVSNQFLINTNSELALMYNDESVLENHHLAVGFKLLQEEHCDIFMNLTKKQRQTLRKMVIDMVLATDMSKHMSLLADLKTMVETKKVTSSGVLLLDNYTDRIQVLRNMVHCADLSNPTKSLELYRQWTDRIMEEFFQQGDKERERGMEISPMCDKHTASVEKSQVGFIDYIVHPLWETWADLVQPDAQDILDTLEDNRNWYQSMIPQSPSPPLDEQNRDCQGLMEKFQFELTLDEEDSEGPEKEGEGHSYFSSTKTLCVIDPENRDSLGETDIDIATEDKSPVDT
- Experiment notes: Inhibition of recombinant His-tagged PDE4B (unknown origin) expressed in Sf9 cells using cAMP as substrate preincubated for 15 mins followed by substrate addition and incubated for 1 hr by PDELight HTS cAMP phosphodiesterase Kit based luminometry
Parameter measured: IC50 (µM)
# value in µM; strip the unit string

input: State, in one line, measured IC50 of "Cc1cc2c(s1)N(Cc1cc3cc(Br)ccc3n1S(C)(=O)=O)c1ccccc1N=C2N1CCN(C)CC1"
output: 1.1

---

- Measured target: 3',5'-cyclic-AMP phosphodiesterase 4D (Homo sapiens)
- Sequence (Q08499 whole entry): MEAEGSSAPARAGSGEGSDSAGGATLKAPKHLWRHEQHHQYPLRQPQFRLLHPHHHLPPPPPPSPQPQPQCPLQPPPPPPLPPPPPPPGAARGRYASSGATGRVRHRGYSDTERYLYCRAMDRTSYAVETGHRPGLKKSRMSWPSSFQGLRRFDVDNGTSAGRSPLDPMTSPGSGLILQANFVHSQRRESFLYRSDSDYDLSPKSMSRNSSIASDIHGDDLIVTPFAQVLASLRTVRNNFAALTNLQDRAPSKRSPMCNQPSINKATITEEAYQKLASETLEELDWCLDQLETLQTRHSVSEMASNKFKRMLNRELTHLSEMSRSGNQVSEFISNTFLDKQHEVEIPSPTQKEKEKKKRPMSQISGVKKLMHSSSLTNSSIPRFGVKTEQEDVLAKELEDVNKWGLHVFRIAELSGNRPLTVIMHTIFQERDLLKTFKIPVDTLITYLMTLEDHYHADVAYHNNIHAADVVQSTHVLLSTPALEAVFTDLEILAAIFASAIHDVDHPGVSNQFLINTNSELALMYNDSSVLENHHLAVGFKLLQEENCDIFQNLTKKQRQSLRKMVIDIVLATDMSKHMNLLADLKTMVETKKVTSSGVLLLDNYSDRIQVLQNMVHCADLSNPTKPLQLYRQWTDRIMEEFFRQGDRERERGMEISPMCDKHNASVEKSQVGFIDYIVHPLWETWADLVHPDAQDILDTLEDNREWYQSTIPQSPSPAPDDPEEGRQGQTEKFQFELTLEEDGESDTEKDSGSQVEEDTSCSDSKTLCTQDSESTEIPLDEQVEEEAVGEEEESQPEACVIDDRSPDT
- Experiment notes: Inhibition of PDE4D2 (unknown origin) using cAMP as substrate preincubated with enzyme for 15 mins followed by substrate addition and incubated for 1 hr by PDELight HTS cAMP phosphodiesterase Kit based luminometry
Each entry below carries its recorded IC50.
Give your result in µM as a bare value.

[[record]]
compound_structure_string = "CCOC(=O)Cn1cc(-c2nc3ccccc3nc2Cl)c2cc(OC)ccc21"
parameter_measured = "IC50"
numeric_value = 15.2


Proceed to the following item.
input: Please list IC50 recorded for the compound "COc1ccc2c(c1)c(-c1nc3ccccc3nc1Cl)cn2C(C)C"
output: 5.02

---

- Experiment notes: Clearance in BALB/c mouse at 10 mg/kg, iv measured for 24 hrs post dose by LC-MS/MS analysis
- Format: ADME, organism-based
- Condition: in vivo
Parameter measured: clearance (L/h/kg)
Give the value, in units of L/h/kg, as a plain number.

input: Give a short answer stating reported clearance for "C=CCn1cc(-c2nc3ccccc3nc2Cl)c2cc(OC)ccc21" .
output: 8.59

---

- Measured target: PDE4C (Homo sapiens, UniProt Q08493)
- Sequence (Q08493 whole entry): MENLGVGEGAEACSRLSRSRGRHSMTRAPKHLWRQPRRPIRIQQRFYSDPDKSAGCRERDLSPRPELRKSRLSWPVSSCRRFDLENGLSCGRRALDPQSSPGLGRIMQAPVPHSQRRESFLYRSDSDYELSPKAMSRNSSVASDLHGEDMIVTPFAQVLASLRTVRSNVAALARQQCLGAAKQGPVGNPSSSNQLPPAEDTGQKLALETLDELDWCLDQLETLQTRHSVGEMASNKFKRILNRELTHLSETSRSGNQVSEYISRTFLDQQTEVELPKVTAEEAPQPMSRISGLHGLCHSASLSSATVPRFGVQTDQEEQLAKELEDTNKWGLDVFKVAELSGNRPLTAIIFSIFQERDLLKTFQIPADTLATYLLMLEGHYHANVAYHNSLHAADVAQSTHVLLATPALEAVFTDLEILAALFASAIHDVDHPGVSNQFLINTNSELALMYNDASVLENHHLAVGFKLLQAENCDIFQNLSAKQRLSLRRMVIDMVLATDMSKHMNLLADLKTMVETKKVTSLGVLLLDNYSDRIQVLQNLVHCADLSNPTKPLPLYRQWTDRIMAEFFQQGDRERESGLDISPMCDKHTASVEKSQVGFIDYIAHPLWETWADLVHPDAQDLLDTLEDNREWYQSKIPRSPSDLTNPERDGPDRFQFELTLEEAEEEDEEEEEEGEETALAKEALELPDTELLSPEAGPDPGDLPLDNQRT
- Experiment notes: Inhibition of PDE4C (unknown origin) at 100 uM using cAMP as substrate preincubated with enzyme for 15 mins followed by substrate addition and incubated for 1 hr by PDELight HTS cAMP phosphodiesterase Kit based luminometry relative to control
- Condition: probe cAMP
Overview of reported inhibition at 1 h, 100 µM across a group of compounds:

[[record]]
compound_structure_string = "CCOC(=O)Cn1cc(-c2nc3ccccc3nc2Cl)c2cc(OC)ccc21"
parameter_measured = "inhibition at 1 h, 100 µM"
result = "20 to 30%"


input: Consider the compound "C=CCn1cc(-c2nc3ccccc3nc2Cl)c2cc(OC)ccc21" . State its measured inhibition at 1 h, 100 µM.
output: 20 to 30%

---

- Experiment notes: MRTlast in BALB/c mouse at 10 mg/kg, iv measured for 24 hrs post dose by LC-MS/MS analysis
- Format: ADME, organism-based
- Condition: in vivo
Parameter measured: MRT last at 24 h (min)
API: value field is a number in min; no unit string.

input: Return value of MRT last at 24 h for input "C=CCn1cc(-c2nc3ccccc3nc2Cl)c2cc(OC)ccc21" , no commentary.
output: 21.6

---

- Experiment notes: Metabolic stability in rat liver microsomes assessed as compound remaining at 5 uM incubated for 30 mins in presence of air measured after 60 mins by LC-MS/MS analysis
- Assay type: ADME, Microsome
- Condition: read-out: Stability
Parameter measured: remaining at 60 min, 5 µM (%)
Quick reminder: number only, in %, skip the unit.

input: Find the measured remaining at 60 min, 5 µM of "C=CCn1cc(-c2nc3ccccc3nc2Cl)c2cc(OC)ccc21" and report it.
output: 42.2
